Tested on: DFO2036
assay text: qHTS profiling for inhibitors of Plasmodium falciparum proliferation (AID 504749); further: nearly all actives have a fitted effect of over 60% in size
assay setup: P. falciparum in erythrocytes, SYBR Green DNA, 72 h; series mostly up to 28.7 µM
Method: NIH National Institute of Allergy and Infectious Diseases [NIAID] NIH Chemical Genomics Center [NCGC] […] Because mature erythrocytes lack DNA, only Plasmodium-derived DNA is detected. NCGC Assay Protocol Summary: The SYBR Green viability assay was adapted from a method described previously (Plouffe et al., 2008). […] The following morning, fluorescence intensity at 485(14) nm excitation and 535(25) nm emission wavelengths was measured on an EnVision (Perkin Elmer) plate reader. […]
Results filed as inconclusive are left out. Active and inactive are the calls of the source. The call rests on the fitted dose curve; in most records, active means well fitted inhibition curve with a large enough effect; inconclusive means small, poorly fitted or top-dose-only effect; inactive means flat fitted curve, though single readings scatter.
Outcome codes: TRUE = active, FALSE = inactive

INSERT INTO results (molecule, class_label) VALUES
  ('NC(CS)C(=O)O (centres undefined)', 'TRUE'),
  ('CCCCCCCCCCCCCCNCCO', 'TRUE'),
  ('Oc1ccc(Cl)c2cccnc12', 'FALSE'),
  ('CNCCC(Oc1ccccc1C)c1ccccc1 (centres undefined)', 'FALSE'),
  ('O=C(CCCN1CCC(O)(c2ccc(Br)cc2)CC1)c1ccc(F)cc1', 'FALSE'),
  ('Cc1cc(O)c(C(C)C)cc1Cl', 'FALSE'),
  ('O=c1ccc2ccccc2o1', 'FALSE'),
  ('O=C(O)c1cc2cc(Cc3cccnc3)ccc2o1', 'FALSE'),
  ('CCCCC(CC)CN=C(N)NC(N)=NCCCCCCN=C(N)NC(N)=NCC(CC)CCCC (centres undefined)', 'TRUE');

###

Test system: CP238
assay text: qHTS profiling for inhibitors of Plasmodium falciparum proliferation (AID 504749); further: nearly all actives have a fitted effect of over 60% in size
assay setup: P. falciparum in erythrocytes, SYBR Green DNA, 72 h; series mostly up to 28.7 µM
Records with an inconclusive call do not appear. Activity calls are given as the source filed them. The call rests on the fitted dose curve; in most records, active means well fitted inhibition curve with a large enough effect; inconclusive means small, poorly fitted or top-dose-only effect; inactive means flat fitted curve, though single readings scatter.
Classes used: active, inactive

INSERT INTO results (compound, class_label) VALUES
  ('Cc1ncc(CSSCc2cnc(C)c(O)c2CO)c(CO)c1O', 'inactive'),
  ('CN(C(=O)CN(CCO)CC(=O)N(C)C(C)(C)Cc1ccccc1)C(C)(C)Cc1ccccc1', 'inactive'),
  ('CC(=O)N(O)CCCCCNC(=O)CCC(=O)N(O)CCCCCNC(=O)CCC(=O)N(O)CCCCCN', 'inactive'),
  ('Cc1c(C)n(Cc2ccccc2)c2ccc(C(=O)OCCN(C)C)cc12', 'inactive'),
  ('CCCn1c(=O)[nH]c(=O)c2[nH]cnc21', 'inactive'),
  ('Cc1ccc(O)c2ncccc12', 'inactive'),
  ('CCC(=O)c1c(O)cc(O)cc1O', 'inactive'),
  ('C#C[C@]1(OC(C)=O)CC[C@H]2[C@@H]3CCC4=C[C@@H](OC(C)=O)CC[C@@H]4[C@H]3CC[C@@]21C', 'inactive'),
  ('Nc1ccc(C(=O)Nc2ccccc2N)cc1', 'inactive'),
  ('O=S1(=O)c2cccc3cccc(c23)N1CCCN1CCN(c2ccc(F)cc2)CC1', 'inactive'),
  ('CCCCCCCCCCCCCCCC[N+](C)(C)CC', 'active'),
  ('CN1C(CCl)Nc2cc(Cl)c(S(N)(=O)=O)cc2S1(=O)=O (stereo not drawn)', 'inactive'),
  ('O=C1OC(c2ccc(O)cc2)(c2ccc(O)cc2)c2ccccc21', 'inactive'),
  ('O=C(Nc1ccc(Cl)c(Cl)c1)C1CC1', 'inactive'),
  ('CC(C)(CO)[C@@H](O)C(=O)NCCCO', 'inactive'),
  ('CC(C)(C)CC(C)(C)c1ccc(O)c(Cc2ccc(Cl)cc2Cl)c1', 'active'),
  ('Cc1cc(=O)n(-c2ccccc2)n1C', 'inactive'),
  ('C[C@@H]1C[C@H]2[C@@H]3CCC4=CC(=O)C=C[C@]4(C)[C@@]3(F)[C@@H](O)C[C@]2(C)[C@H]1C(=O)CO', 'inactive'),
  ('NCCC(O)(P(=O)(O)O)P(=O)(O)O', 'inactive'),
  ('O=C1CCC(c2ccc(-n3ccnc3)cc2)=NN1', 'inactive'),
  ('N[C@@H](Cc1cnc[nH]1)C(=O)O', 'inactive'),
  ('C[C@H]1C[C@H]2[C@@H]3CCC4=CC(=O)C=C[C@]4(C)[C@@]3(Cl)[C@@H](O)C[C@]2(C)[C@@]1(O)C(=O)CO', 'inactive'),
  ('Nc1ccc(/C=C/c2ccc(N)cc2S(=O)(=O)O)c(S(=O)(=O)O)c1', 'inactive'),
  ('O=C(OCCOCCO)c1ccccc1Nc1cccc(C(F)(F)F)c1', 'inactive'),
  ('CC/C(=C(/CC)c1ccc(O)cc1)c1ccc(O)cc1', 'inactive'),
  ('N[C@H](Cc1c[nH]c2ccccc12)C(=O)O', 'inactive'),
  ('CC(C)=CCC1C(=O)N(c2ccccc2)N(c2ccccc2)C1=O', 'inactive'),
  ('CCN(CC)C(=O)N1CCN(C)CC1', 'inactive'),
  ('C[C@H]1[C@H](NC(=O)/C(=N/OC(C)(C)C(=O)O)c2csc(N)n2)C(=O)N1S(=O)(=O)O (stereo in doubt)', 'inactive'),
  ('CC(=O)c1ccc2c(c1)N(CCCN1CCC(CCO)CC1)c1ccccc1S2', 'inactive'),
  ('O=C(O)CNC(=O)c1ccccc1', 'inactive'),
  ('CC1=C(C(=O)OC(C)C)C(c2cccc([N+](=O)[O-])c2)C(C(=O)OC2CN(C(c3ccccc3)c3ccccc3)C2)=C(N)N1 (stereo not drawn)', 'active'),
  ('CC(=O)OCC(=O)NCCCOc1cccc(CN2CCCCC2)c1', 'inactive');

###

assay text: Cell Viability - LYMP2-010 (AID 981);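 further: cells exposed to compound for 24 hours at 37 °C; nearly all actives have a fitted effect of over 55% in size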
assay setup: LYMP2-010 lymphoblastoid cell viability, qHTS; series mostly up to 92.2 µM
Records with an inconclusive call do not appear. Activity calls are given as the source filed them. The call rests on the fitted dose curve; in most records, active means well fitted cell-killing curve with a large enough effect; inconclusive means small, poorly fitted or top-dose-only effect; inactive means flat fitted curve, though single readings scatter.
Possible outcomes: active, inactive

INSERT INTO assay_data (compound, class_label) VALUES
  ('O=C1OC(c2ccc(O)cc2)(c2ccc(O)cc2)c2ccccc21', 'inactive'),
  ('CC(C)(C)CC(C)(C)c1ccc(OCCOCC[N+](C)(C)Cc2ccccc2)cc1', 'active'),
  ('CC(=O)Oc1ccc(C(c2ccc(OC(C)=O)cc2)c2ccccn2)cc1', 'inactive'),
  ('CC(O)C(=O)O (stereo unspecified)', 'inactive'),
  ('Oc1ccc(O)cc1', 'active'),
  ('COc1cccc2c1C(=O)c1c(O)c3c(c(O)c1C2=O)C[C@@](O)(C(=O)CO)C[C@@H]3O[C@H]1C[C@H](N)[C@H](O)[C@H](C)O1', 'active');

###

assay text: qHTS of pediatric cancer cell lines to identify multiple opportunities for drug repurposing: Primary screen for SK-N-SH cells (AID 1347098); further: nearly all actives have a fitted effect of over 65% in size; further: potency means the concentration at half of the fitted maximal effect
assay setup: SK-N-SH viability, CellTiter-Glo luminescence, 48 h; series mostly up to 57 µM
Method: Drug repurposing or repositioning has been offered as a strategy for drug development in oncology programs. […] [1] Shen, M et al. Quantitative high-throughput phenotypic screening of pediatric cancer cell lines identifies multiple opportunities for drug repurposing. […] Cells were assayed in growth media at a density of 500-1,000 cells/well. […] After a 15 min incubation at room temperature, samples were analyzed for luminescence intensity using a ViewLux High-throughput CCD imager equipped with clear filters.
Records with an inconclusive call do not appear. The source made the active and inactive calls. The call rests on the fitted dose curve; in most records, active means well fitted cell-killing curve with a large enough effect; inconclusive means small, poorly fitted or top-dose-only effect; inactive means no such curve, though single readings can be large or run the other way.
measurement kind: Potency

INSERT INTO results (smiles_repr, meas_value) VALUES
  ('C[C@@H]1CN(CCCn2c3ccccc3c3ccccc32)C[C@H](C)N1', '9.7 µM (active)'),
  ('O=C1[C@H]2CCCC[C@H]2C(=O)N1CCCCN1CCN(c2nsc3ccccc23)CC1', 'inactive'),
  ('CC1(C)O[C@@H]2[C@@H](CO[C@@]3(COS(N)(=O)=O)OC(C)(C)O[C@@H]23)O1', 'inactive');

###

System: OV90
assay text: Primary qHTS to identify gynecologic anti-cancer compounds using libraries of approved drugs and bioactive compounds (AID 1345084); further: nearly all actives have a fitted effect of over 55% in size
assay setup: Gynecologic cancer cell panel viability, ATPlite luminescence, 48 h; series mostly up to 57.5 µM
Results filed as inconclusive are left out. The source made the active and inactive calls. The call rests on the fitted dose curve; in most records, active means well fitted cell-killing curve with a large enough effect; inconclusive means small, poorly fitted or top-dose-only effect, or effect the other way; inactive means flat fitted curve, though single readings scatter.
Classes used: class 1 for active, class 0 for inactive

INSERT INTO assay_data (compound, class_label) VALUES
  ('OC[C@H]1O[C@@H](n2cnc3c(=S)nc[nH]c32)[C@H](O)[C@@H]1O', 'class 1'),
  ('c1ccc(-c2ccc(C(c3ccccc3)n3ccnc3)cc2)cc1 (centres undefined)', 'class 0'),
  ('N[C@H](Cc1c[nH]c2ccccc12)C(=O)O', 'class 0'),
  ('COc1cc(C(=S)N2CCOCC2)cc(OC)c1OC', 'class 0');

###

Tested on: CP217
assay text: qHTS profiling for inhibitors of Plasmodium falciparum proliferation (AID 504749); further: nearly all actives have a fitted effect of over 60% in size
assay setup: P. falciparum in erythrocytes, SYBR Green DNA, 72 h; series mostly up to 28.7 µM
Inconclusive results are not listed. The source made the active and inactive calls. Calls follow the shape of the dose curve; as a rule, active = well fitted inhibition curve with a large enough effect; inconclusive = small, poorly fitted or top-dose-only effect; inactive = flat fitted curve, though single readings scatter.
Labels: active, inactive

INSERT INTO results (smiles_repr, system_tested, class_label) VALUES
  ('OCc1ccccc1O', 'CP217', 'inactive'),
  ('O=C1c2ccccc2C(=O)C1c1ccccc1', 'CP217', 'inactive'),
  ('CC[N+](CC)(CCNC(=O)C(=O)NCC[N+](CC)(CC)Cc1ccccc1Cl)Cc1ccccc1Cl', 'CP217', 'active'),
  ('Cc1c(C)n(CCN(C)C)c2ccc(C(=O)OCCN(C)C)cc12', 'CP217', 'inactive'),
  ('COc1cc(NS(C)(=O)=O)ccc1Nc1c2ccccc2nc2ccccc12', 'CP217', 'active');

Where do these numbers come from? They come from PubChem BioAssay (NCATS).
